Biological target: EGFR (form used in the assay not stated) (human, UniProt P00533 25-645, limits assumed)
Experiment: ELISA, NEM conjugate, 500 nM
experimental.readout: binding relative to P54AR4-83v2 parent (ratio)
Kindly provide the numeric value in ratio only, without the unit symbol.

[
  {
    "binder": "P54AR4-83v2 S89C, NEM conjugate (designed binder, not shown: small tags and cut ends, N-ethyl maleimide (NEM) on Cys 89) LPAPKNLVVSEVTEDSARLSWDDPWAFYESFLIQYQESEKVGEAIVLTVPGSERSYDLTGLKPGTEYTVSIYGVHNVYKDTNMRGLPLCAIFTT",
    "u": "ratio",
    "binding relative to P54AR4-83v2 parent": 1.04
  },
  {
    "binder": "P54AR4-83v2 R54C, NEM conjugate (designed binder, not shown: small tags and cut ends, N-ethyl maleimide (NEM) on Cys 54) LPAPKNLVVSEVTEDSARLSWDDPWAFYESFLIQYQESEKVGEAIVLTVPGSECSYDLTGLKPGTEYTVSIYGVHNVYKDTNMRGLPLSAIFTT",
    "u": "ratio",
    "binding relative to P54AR4-83v2 parent": 0.93
  },
  {
    "binder": "P54AR4-83v2 K79C, NEM conjugate (designed binder, not shown: small tags and cut ends, N-ethyl maleimide (NEM) on Cys 79) LPAPKNLVVSEVTEDSARLSWDDPWAFYESFLIQYQESEKVGEAIVLTVPGSERSYDLTGLKPGTEYTVSIYGVHNVYCDTNMRGLPLSAIFTT",
    "u": "ratio",
    "binding relative to P54AR4-83v2 parent": 0.93
  }
]

Then this binder:
Give the measured binding relative to P54AR4-83v2 parent of P54AR4-83v2 N82C, NEM conjugate (designed binder, not shown: small tags and cut ends, N-ethyl maleimide (NEM) on Cys 82) LPAPKNLVVSEVTEDSARLSWDDPWAFYESFLIQYQESEKVGEAIVLTVPGSERSYDLTGLKPGTEYTVSIYGVHNVYKDTCMRGLPLSAIFTT .
0.96
